Reference source for all entries: a melting point compilation (Tetko et al.; mined from patent text by program, amines drawn as free bases though some values may be those of a salt)

Let's look at some molecules and their measured melting point.

Field: example entries. Status: answers known.
CN1CCN(C(=O)c2ccc(-c3[nH]nc4c3C(=O)c3c(NC(=O)NN5CCOCC5)cccc3-4)s2)CC1 | 186 to 187 °C
CCOC(=O)c1cc2c(cn1)[nH]c1ccccc12 | 229 °C
CCCOCCOc1ccc(-c2ccc3c(c2)C=C(C(=O)Nc2ccc(CN(C)C4CCOCC4)cc2)CCS3(=O)=O)cc1OCC | 171 to 172 °C
Cn1ncc2c1CCC(=CO)C2=O | 93 to 95 °C
CNc1ccccc1C(=O)N1Cc2ccccc2C(=O)N1 | 199 to 202 °C
CCCc1cc(=O)c(C(=O)OC)c(C)[nH]1 | 171 to 172 °C
CCCCn1cnc2c(SCc3ccc4nsc(Br)c4c3)ncnc21 | 118 to 119 °C
COc1ccc(CCSc2c(O)cc(-c3ccccc3)oc2=O)cc1 | 144 to 145 °C

Now look at this one.
// query Name the recorded melting point for "NC(=O)c1c(Cl)cc(Cl)c(CC(=O)O)c1Cl" .
// result 211 °C

---

Value Kind: melting point

Please review the entries below; each comes with its answer.
CCCCn1nc(CCc2ccccc2)nc1Cc1ccc(-c2ccccc2-c2nnn[nH]2)nc1 | 121 to 123 °C
COc1cc2c(Nc3ccc(Sc4nccn4C)c(Cl)c3)c(C#N)cnc2cc1/C=C/CCCN1CCN(C)CC1 | 215 to 221 °C
COc1cccc(C=NNc2ncc(COc3cccc(C(=O)Nc4ccc(C(C)C)c(C)c4)c3)c3ccccc23)c1 | 125 to 129 °C
C=CCO[C@@H]1C[C@H]2[C@H](C(=O)O)[C@H]2[C@]1(N)C(=O)O | > 250 °C
O=[N+]([O-])c1cnc2ccc(O)cc2c1-c1ccccc1 | 282 to 284 °C
CC(C)(C)C1Cn2c(nc3ccccc32)-c2ccccc2O1 (stereo unspecified) | 149 to 150 °C
CNC(=O)CC=C(CC(C)C)C(=O)OC(C)(C)C | 35 to 36 °C
COCCOCOc1ccc2cc(C(=O)N(C)Cc3cccc(-c4ccc(Nc5cccc(C(=O)O)c5)cc4)c3)ccc2c1 | 60 °C

// query Quick one: melting point of "O=C(O)[C@@H]1CCCN1Cc1cc2cc3c(cc2c2cc(O)ccc12)OCO3" ?
// result 205 to 206 °C

// query Fill blank: measured melting point of the compound "CCCNC(=O)c1cccc(-c2cc(-c3ccccc3O)nc(NC(=O)c3cccs3)c2C#N)c1" is ____.
// result 245 to 246 °C

// query Quick one: melting point for "O=C(O)c1cccc(Oc2cccc(-c3nn(Cc4ccc(C(F)(F)P(=O)(O)O)c(Cl)c4)c(=Nc4ccc(Cl)c(Cl)c4)s3)c2)c1" ?
// result 212 to 215 °C

---

Value Kind: melting point

Record excerpt, results attached:
CC(C)NC(=S)Nc1ccc(Cl)c(-c2ccnc3c(C(=O)c4cccs4)cnn23)c1 | 194 to 195 °C
CCOC(=O)C(=CNc1ccc(Br)cn1)[N+](=O)[O-] | 141 to 142 °C
OC(COc1cccnc1)c1cccc(OCc2ccc3ccccc3n2)c1 (stereo not given) | 103 to 104 °C
Brc1ccc(-c2coc3c2ccc2ccccc23)cc1 | 125 to 130 °C
Cc1ccc(O)c(-c2ccc(Br)cc2)n1 | 196 to 199 °C

// query GET /values?readout=melting point&item= "COc1ccc(CNc2nc(CCCCCCC(=O)O)nc3sc(Cl)cc23)cc1Cl"
// result 137 °C

// query Look up melting point for this compound: COc1ccc(C(=O)Nc2c(C)c(C)c3c(c2C)C(c2ccc(C)cc2)C(C)(C)O3)cc1 (stereo not given)
// result 161 to 163 °C

// query Would you mind telling me what melting point value was observed for "CN1CCN(c2cccc3c2C[C@H](NC(=O)c2ccc(N4CCOCC4)cc2)CC3)CC1" ?
// result 230 to 231 °C

// query Data request, read-out melting point, for COCc1cccc2oc(C(=O)Nc3ccc(-c4ccc(S(=O)(=O)NC(C(=O)O)C(C)C)cc4)cc3)c(C)c12 (stereo not given)
// result 227 to 230 °C

// query Would you kindly share the measured melting point for "CNC(=O)Nc1ccsc1C(=O)OC" ?
// result 141 to 142 °C

---

In this section, each of the compounds is paired with its reported melting point.

Some compounds with recorded melting point:
CNc1ccc(C(=O)c2ccccc2)cc1[N+](=O)[O-] | 198 to 201 °C
CCc1nc2c(c(C)c(C)n3nnnc23)n1CCOCCNC(=O)CCCCl | 149 to 151 °C

Next compound, melting point to be filled in.
// query Query (compound): "CCOCc1nc2c(N)nc3cc(-n4cccn4)ccc3c2n1CCCOC" ; field requested: melting point
// result 159 to 160 °C

---

Listed here are molecules together with their documented melting point.

CN1C[C@H](CN2CCC(O)(c3ccc(Cl)cc3)CC2)C=C2c3cccc4c3c(cn4C)C[C@H]21 | 101 to 107 °C
N#Cc1ncncc1-c1ccc(CBr)cc1 | 114 to 116 °C
COC(=O)c1ccc2c(c1)S(=O)(=O)NCN2C1CC1 | 178 to 180 °C

Let us examine a further case.
// query What melting point value was documented for this molecule, "Cc1cc(-c2cc(C(F)(F)F)n3ncc(-c4ccncc4)c3n2)ccc1C(F)(F)F" ?
// result 227 °C

---

Here the recorded melting point is given for each entry.

Consider the reported melting point for these molecules:
O=C(Nc1cc2c3c(c1)CCCC3CCC2)c1ccc(C(=O)O)nc1 | 239 to 240 °C
C=C1c2ccccc2-c2ccccc21 | 46 to 48 °C
CN1CCN(c2cccc3ccc(-n4cnc5ncccc54)cc23)CC1 | 107 to 112 °C
CCc1cc(C(=O)c2ccccc2)c(O)cc1OCCCCC#N | 42 to 44 °C
O=C1CSCc2cc(Cl)ccc21 | 79.5 to 82 °C

// query Value lookup for melting point; key = "CCn1ncc2c(Cl)c3cc(Br)ccc3nc21"
// result 117 to 118 °C

---

Measured melting point accompanies every entry in the list below.

Consider the worked cases shown below.
COC(=O)Cc1ccc(CNC(=O)C2Cc3ccccc3N2S(=O)(=O)c2ccc(-c3cccc(Cl)c3)cc2)cc1 (centres undefined) | 70 °C
CS(=O)(=O)Nc1ccc(/C=C\COCCCCCCNCC(O)c2ccc(O)c(CO)c2)cc1 (centres undefined) | 113 to 116 °C
CC(=O)C(Cc1ccc(O)cc1)C(C)=O | 93 to 94.5 °C

// query Record request: melting point value, item CC(CC(C)(C)c1ccccc1)N=C(O)C(Cl)=C(Cl)C(=O)O (centres undefined)
// result 106 to 109 °C

---

Value Kind: melting point

Here is how some compounds turned out for melting point.
COc1ccc(C2=CCCS(=O)C2)cc1OC1CCCC1 (stereo not given) | 92 to 93 °C
O=C(O)CCCCCCCn1c(-c2ccc(O)cc2)nc(-c2ccccc2)c1-c1ccccc1 | 167 °C
Cn1cnc2ncnn2c1=S | 238 to 240 °C
COc1cc(Nc2nc3cccc(-c4ccc5[nH]cnc5c4)c3o2)cc(OC)c1OC | 150 to 156 °C
O=C(Nc1ccc(S(=O)(=O)Oc2ccccc2)cc1[N+](=O)[O-])NS(=O)(=O)Cl | 190 °C
Clc1ccc(Nc2nnc(Cl)c3sccc23)cc1 | 139 to 142 °C
CS(=O)(=O)Nc1ccc([N+](=O)[O-])cc1C(=O)C1CCCCC1 | 178 to 179 °C
O=C(N[C@H]1CC[C@H](CCN2CCC(c3cccc4c3CCO4)CC2)CC1)c1ccc(-c2cccnc2)cc1 | 224 °C
CC(=O)NC[C@H]1CN(c2ccc(C3=CCOCC3)cc2)C(=O)O1 | 182 to 184 °C

In the following, a different compound is considered.
// query # query: melting point of entry "CCN(CC)CCC(=O)Nc1ccc([N+](=O)[O-])cc1"
// result 86 to 88 °C

---

Items are presented alongside their recorded melting point.

Known melting point results, listed for orientation:
CCc1cc(Nc2cc(Cl)c(C(F)(F)F)cc2[N+](=O)[O-])c(OC)cc1OC | 161 to 162 °C
Cc1cc(-n2ccnc2)c2cccc(OCc3c(Cl)ccc(S(=O)(=O)N4CCC[C@H]4C(=O)NCC4CCN(Cc5cccnc5)CC4)c3Cl)c2n1 | 107 °C
CCOC(=O)C(=Cc1cnccc1OC)N=[N+]=[N-] | 92 to 95 °C

// query Quick check: melting point of "COc1ccc2[nH]cc(CCNC=O)c2c1Cl" ?
// result 120 to 121 °C

// query Any idea what its melting point is? The compound is "CCOC(=O)NNC(=O)Nc1c(F)cc(F)cc1F"
// result 177 to 178 °C

// query Quick one: melting point of "Clc1ccc(Cc2nc(-c3ccccc3)nnc2NCCN2CCCCC2)cc1" ?
// result 192 °C
